experiment: Therapeutic index, ratio of TC50 for african green monkey Vero cells to IC50 for Yellow fever virus Ashibi
Format: cell-based
assay-setup: read-out: TI
Give selectivity ratio for every item shown.
Answers are plain numbers.

// below: answered compounds
CC(=O)O[C@@H]1[C@@H](O)[C@@H](O)[C@@H]2NC(=O)c3cc4c(cc3[C@H]2[C@H]1O)OCO4 [LYCORICIDINE MONOACETATE]; 4.3
O=C1N[C@H]2[C@H](O)[C@H](O)[C@@H](O)C[C@@H]2c2cc3c(cc21)OCO3; 7.5
O=c1[nH]c2c(c3cc4c(c(O)c13)OCO4)C[C@H](O)[C@@H](O)[C@H]2O [ISONARCICLASINE]; 4.1
CC(=O)O[C@@H]1[C@@H](OC(C)=O)[C@H](OC(C)=O)[C@@H]2c3cc4c(cc3C(=O)N[C@H]2[C@@H]1OC(C)=O)OCO4; 3.8
O=C1N[C@H]2[C@H](O)[C@H](O)[C@@H](O)C[C@H]2c2cc3c(cc21)OCO3; 6.6
O=C1N[C@H]2[C@H](O)[C@H](O)[C@@H](O)C[C@H]2c2cc3c(c(O)c21)OCO3; 3.9
O=c1[nH]c2c(c3cc4c(cc13)OCO4)C[C@H](O)[C@@H](O)[C@H]2O; 4.2
CO[C@@H]1C=C[C@@]23c4cc5c(cc4C(O)O[C@H]2CN(C)[C@H]3C1)OCO5 (stereo partly specified) [PRETAZETTINE]; 5.6

For every listed record, write down its selectivity ratio.
1. COc1cc2c(cc1O)[C@@H]1[C@H](O)[C@@H](O)C=C3CCN(C2)[C@H]31 [PSEUDOLYCORINE]
2. O=C1N[C@@H]2C(=C[C@H](O)[C@@H](O)[C@H]2O)c2cc3c(c(O)c21)OCO3 [NARCICLASINE]
3. O=C1N[C@H]2[C@H](O)[C@H](O)[C@@H](O)[C@H](O)[C@@H]2c2cc3c(c(O)c21)OCO3 [PANCRATISTATIN]
4. O=C1N[C@@H]2C(=C[C@H](O)[C@@H](O)[C@H]2O)c2cc3c(cc21)OCO3
5. O=C1N[C@H]2[C@H](O)[C@H](O)[C@@H](O)[C@H](O)[C@@H]2c2cc3c(cc21)OCO3
6. CC(=O)O[C@@H]1[C@@H](OC(C)=O)[C@H](O)[C@@H]2c3cc4c(cc3C(=O)N[C@H]2[C@@H]1OC(C)=O)OCO4
7. O[C@H]1[C@H]2c3cc4c(cc3CN3CCC(=C[C@@H]1O)[C@H]23)OCO4 [LYCORINE]

1: 3.7; 2: 6.1; 3: 4.9; 4: 5.6; 5: 6.6; 6: 3.8; 7: 7.3

* * *

Tested on: dengue virus type 4
experiment: Antiviral activity against Dengue virus type 4 infected in african green monkey Vero cells after 6 days by plaque reduction assay
Format: functional, organism-based
assay-setup: Dengue virus, Vero, 144 h; read-out: IC50
experimental-endpoint: IC50 (µg/mL)
Answers are plain numbers, in µg/mL.

// below: answered molecules
O=C1N[C@H]2[C@H](O)[C@H](O)[C@@H](O)C[C@H]2c2cc3c(cc21)OCO3; 4.4
O=C1N[C@@H]2C(=C[C@H](O)[C@@H](O)[C@H]2O)c2cc3c(cc21)OCO3; 0.059
COc1cc2c(cc1O)[C@@H]1[C@H](O)[C@@H](O)C=C3CCN(C2)[C@H]31; 0.39
O=C1N[C@H]2[C@H](O)[C@H](O)[C@@H](O)[C@H](O)[C@@H]2c2cc3c(c(O)c21)OCO3; 0.063
O=C1N[C@H]2[C@H](O)[C@H](O)[C@@H](O)C[C@@H]2c2cc3c(cc21)OCO3; 0.5

For every listed record, write down its IC50.
1. O=c1[nH]c2c(c3cc4c(cc13)OCO4)C[C@H](O)[C@@H](O)[C@H]2O
2. CC(=O)O[C@@H]1[C@@H](O)[C@@H](O)[C@@H]2NC(=O)c3cc4c(cc3[C@H]2[C@H]1O)OCO4 [LYCORICIDINE MONOACETATE]
3. O=C1N[C@H]2[C@H](O)[C@H](O)[C@@H](O)C[C@@H]2c2cc3c(c(O)c21)OCO3

1. 8.5
2. 1.5
3. 0.015

* * *

Give selectivity ratio for every item shown.
experiment: Therapeutic index, ratio of TC50 for african green monkey Vero cells to IC50 for Punta toro virus Adames
Type: cell-based
assay-setup: read-out: TI
One number for each entry.

// below: answered compounds
O=c1[nH]c2c(c3cc4c(cc13)OCO4)C[C@H](O)[C@@H](O)[C@H]2O; 3.7
COc1cc2c(cc1O)[C@@H]1[C@H](O)[C@@H](O)C=C3CCN(C2)[C@H]31; 3.9
O=C1N[C@@H]2C(=C[C@H](O)[C@@H](O)[C@H]2O)c2cc3c(cc21)OCO3; 6.3

Dear colleague, I am looking for the recorded selectivity ratio of the following compound: `CC(=O)O[C@@H]1[C@@H](OC(C)=O)[C@H](O)[C@@H]2c3cc4c(cc3C(=O)N[C@H]2[C@@H]1OC(C)=O)OCO4` 4.2

* * *

experiment: Therapeutic index, ratio of TC50 for african green monkey Vero cells to IC50 for Dengue type 4 virus
Format: cell-based
assay-setup: read-out: TI
Assign 1 (yes) whenever selectivity ratio does not fall below 5; assign 0 (no) whenever it does.

Example entries begin here.
O=C1N[C@@H]2C(=C[C@H](O)[C@@H](O)[C@H]2O)c2cc3c(c(O)c21)OCO3; 0 (no)
O=c1[nH]c2c(c3cc4c(c(O)c13)OCO4)C[C@H](O)[C@@H](O)[C@H]2O; 1 (yes)
O=C1N[C@H]2[C@H](O)[C@H](O)[C@@H](O)C[C@H]2c2cc3c(cc21)OCO3; 1 (yes)
COc1cc2c(cc1O)[C@@H]1[C@H](O)[C@@H](O)C=C3CCN(C2)[C@H]31; 0 (no)
CC(=O)O[C@@H]1[C@@H](OC(C)=O)[C@H](O)[C@@H]2c3cc4c(cc3C(=O)N[C@H]2[C@@H]1OC(C)=O)OCO4; 1 (yes)

Dear colleague, could you confirm whether `O=C1N[C@@H]2C(=C[C@H](O)[C@@H](O)[C@H]2O)c2cc3c(cc21)OCO3` has selectivity ratio at or above 5? 0 (no)

Dear colleague, could you confirm whether CC(=O)O[C@@H]1[C@@H](O)[C@@H](O)[C@@H]2NC(=O)c3cc4c(cc3[C@H]2[C@H]1O)OCO4 [LYCORICIDINE MONOACETATE] has selectivity ratio at or above 5? 1 (yes)

* * *

Give selectivity ratio for every item shown.
experiment: Therapeutic index, ratio of TC50 for african green monkey Vero cells to IC50 for Punta toro virus Adames
Type: cell-based
assay-setup: read-out: TI
Numbers only.

// below: answered compounds
O=C1N[C@H]2[C@H](O)[C@H](O)[C@@H](O)C[C@H]2c2cc3c(cc21)OCO3; 4.8
O=C1N[C@H]2[C@H](O)[C@H](O)[C@@H](O)C[C@H]2c2cc3c(c(O)c21)OCO3; 3.6

For every listed record, write down its selectivity ratio.
1. O=C1N[C@H]2[C@H](O)[C@H](O)[C@@H](O)C[C@@H]2c2cc3c(cc21)OCO3
2. CC(=O)Oc1c2c(cc3c1C(=O)N[C@H]1[C@H](OC(C)=O)[C@H](OC(C)=O)[C@@H](OC(C)=O)C[C@@H]31)OCO2
3. O=C1N[C@@H]2C(=C[C@H](O)[C@@H](O)[C@H]2O)c2cc3c(c(O)c21)OCO3
4. CO[C@@H]1C=C[C@@]23c4cc5c(cc4C(O)O[C@H]2CN(C)[C@H]3C1)OCO5 (stereo partly drawn)
5. O=C1N[C@H]2[C@H](O)[C@H](O)[C@@H](O)C[C@@H]2c2cc3c(c(O)c21)OCO3

[5.9, 6.4, 3.9, 3.7, 3.3]

Dear colleague, I am looking for the recorded selectivity ratio of the following compound: `O=c1[nH]c2c(c3cc4c(c(O)c13)OCO4)C[C@H](O)[C@@H](O)[C@H]2O` 5.1

* * *

Give selectivity ratio for every item shown.
experiment: Therapeutic index, ratio of TC50 for african green monkey Vero cells to IC50 for Rift valley fever virus
Assay type: cell-based
assay-setup: read-out: TI

// below: answered compounds
O=C1N[C@@H]2C(=C[C@H](O)[C@@H](O)[C@H]2O)c2cc3c(cc21)OCO3; 5.5
O=C1N[C@H]2[C@H](O)[C@H](O)[C@@H](O)[C@H](O)[C@@H]2c2cc3c(cc21)OCO3; 4.3
O[C@H]1[C@H]2c3cc4c(cc3CN3CCC(=C[C@@H]1O)[C@H]23)OCO4 [LYCORINE]; 5.4
O=C1N[C@H]2[C@H](O)[C@H](O)[C@@H](O)C[C@H]2c2cc3c(c(O)c21)OCO3; 3.6
COc1cc2c(cc1O)[C@@H]1[C@H](O)[C@@H](O)C=C3CCN(C2)[C@H]31 [PSEUDOLYCORINE]; 6
O=c1[nH]c2c(c3cc4c(c(O)c13)OCO4)C[C@H](O)[C@@H](O)[C@H]2O [ISONARCICLASINE]; 7.6

Attention now turns to another entry.
Dear colleague, I am looking for the recorded selectivity ratio of the following compound: `O=C1N[C@H]2[C@H](O)[C@H](O)[C@@H](O)C[C@@H]2c2cc3c(cc21)OCO3` 2
